Tested on: MS2 coat protein
Run description: apparent KD of MS2 coat protein; designed switch direction (-1 OFF switch, 1 ON switch): 1; higher = weaker reporter binding
Test parameters: Eterna round: R95; input ligand: FMN 200 uM
Give apparent KD of MS2 coat protein for every item shown.
Answers are plain numbers, in nM.

Answered cases to consult:
| Sequence entry | Measured result |
| --- | --- |
| AUAAGGCAAGCUUUUUUCUCGUAGUGUAAACAUGAGGAUCACCCAUGUGCCCACCCUGGAUCUUUGGAUCGCAAAAC [Ceatgeor] (puzzle: Sensor for hsa-mir-208a) | 23.9 |
| GUAGGACAUGAGGAUCACCCAUGUGGGAGGGAACGAGGAUAUGUGAUUAGCGAGGAGAGGACAGAAGGCGUGGUAG [JR_SS1_Sub024] (puzzle: Same State 1) | 55.2 |
| UGGUAACAUGAGGAUCACCCAUGUCAAAUGAAUCGAGGAUAUGGGAAUUAACAAUAUAAACUAGAAGGCGAAUUUG [Altered State 1-7 - Jieux - Same State 1] (puzzle: Same State 1) | 144 |
| UUUAAACAUGAGGAUCACCCAUGUUUUUUCAUGGGAGGAUAUCUAAGUUAAUUAUAUUAAGGAGAAGGCCUAUUUU [× ×•×ª×• ×ž×“×™× ×” × ×—×ª-05] (puzzle: Same State 1) | 111 |
| AUAAGGCAAGCUUUUUUCUCGUUGUGUAAACAUGAGGAUCACCCAUGUGCCCACCCUGGAUCUUUGGAUCGCAGAAC [Mais] (puzzle: Sensor for hsa-mir-208a) | 40.8 |
| AGUCCAGCCUGAGCUGGACAAAAGCAUGUACAUGAGGAUCACCCAUGUCAUGUACAAGCUUUUUGCUCGACUUAAAA [Mat - hsa-mir-208a - Mod of JL - D10] (puzzle: Sensor for hsa-mir-208a) | 569 |

Could you report apparent KD of MS2 coat protein for every entry in the following list?
1. UGUAUACAUGAGGAUCACCCAUGUCAACGUAGUCGAGGAUAUGGGCAGCCGUGAGGCGUACCAGAAGGCGAAGAGG [JL-ss1-3.05 ViennaUCT mod] (puzzle: Same State 1)
2. GGAGCCGGCACUGAGGAUAUUCGUAUUAAAACAUGAGGAUCACCCAUGUAGGCCAGAAGGCCUUGGGAGAAGGCAGGUCGACUCG [Diqureveri - 2] (puzzle: Same State 2)
3. AUAAGUUUGAUGCUCGUCUCUCCGUACAGACAUGAGGAUCACCCAUGUAGUCGGGCAGUAGCCCGGCCAGUAUGGCC [Raatbeor] (puzzle: Sensor for hsa-mir-208a)
4. GUAUAACAUGAGGAUCACCCAUGUCAUCUAAGUCGAGGAUAUGGGAAUUAAUUAAUUAAACCAGAAGGCGAAAAUU [Mat - Same State 1 - D92] (puzzle: Same State 1)
5. GGAGCCGGUACUGAGGAUAUUCAUAUUAAAACAUGAGGAUCACCCAUGUGGGCCAGAAGGCCUUGGGAGAAGGCAGACCAGCUCG [Atgexeedri - 3] (puzzle: Same State 2)
6. AUAAAACAUGAGGAUCACCCAUGUCAACAAAGAUGAGGAUAUGUACAGACUUCGGUCUGUACAGAAGGCAUAUAAU [salish99_ss1_r3_099] (puzzle: Same State 1)

[A]
1. 27.6
2. 17.2
3. 103
4. 79
5. 15.4
6. 15.4

Value sought for every listed sequence: apparent KD of MS2 coat protein.
1. CUAUCUACAGGUGUCUUUGCUCGUUUUAUACAUGAGGAUCACCCAUGUUAUAGCCCGGUGCUUGCGCUGGGCUGAUU [JL ViennaUCT Tearor mod 7] (puzzle: Sensor for hsa-mir-208a)
2. UCUUGGUUUUUGCUCGUUUUUUGUGUUGAACAUGAGGAUCACCCAUGUAUUGUACGGUCCAAUUUAGUAAUGGUCCG [JMF 26] (puzzle: Sensor for hsa-mir-208a)
3. CGUCCAGCCUGAGCUGGACAAAAGCAUGUACAUGAGGAUCACCCAUGUUCAUGUACAAGCUUUUUGCUCGUCUUACC [salish99_208a_r3_094x] (puzzle: Sensor for hsa-mir-208a)

[A]
[100, 25.4, 638]

Would you be so kind as to report apparent KD of MS2 coat protein for each listed record?
1. GAAGGAUGAGCGUAGGAUAUAGGAGGAGUGACAUGAGGAUCACCCAUGUAGUAGGAGGGAGGGUACUAGAAGGACGAGGAAGAAG [JR_SS2_Sub067] (puzzle: Same State 2)
2. AGUCCAGCGAAAGCUGGACAAAAGCAUGUACAUGAGGAUCACCCAUGUUUAUGUACAAGCUUUUUGCUCGUUUUAAA [JL mod - D95 - 16] (puzzle: Sensor for hsa-mir-208a)
3. CAAACUUAGUAGGGUAGGUACCCAGGACGACAUGAGGAUCACCCAUGUAAGAGCUUUUUGCUCGUCGUCAACAGUUG [JR_SHM208a_Sub019] (puzzle: Sensor for hsa-mir-208a)
4. AGUCCAGCCAAAGCUGGACAAAAGCAUGUACAUGAGGAUCACCCAUGUUCAUGUACAAGCUUUUUGCUCGUCUUAAA [Mat - hsa-mir-208a - Mod of JL - 56] (puzzle: Sensor for hsa-mir-208a)
5. UCUUGGUUUUUGCUCGUUUUUUGUGUUGAACAUGAGGAUCACCCAUGUAUUGUACGAUCCAAUUUGAUAAUGGUCCG [JMF 61] (puzzle: Sensor for hsa-mir-208a)

[A]
39.7
365
19.8
413
44.2

Numbers sourced from the supplement of paper PMC9170038.
